Target: HCoV-229E S protein (S1+S2 ECD) (HCoV-229E, strain not named (stand-in: …, UniProt P15423))
Sequence (P15423 whole entry, looked up, the tested form may be a part): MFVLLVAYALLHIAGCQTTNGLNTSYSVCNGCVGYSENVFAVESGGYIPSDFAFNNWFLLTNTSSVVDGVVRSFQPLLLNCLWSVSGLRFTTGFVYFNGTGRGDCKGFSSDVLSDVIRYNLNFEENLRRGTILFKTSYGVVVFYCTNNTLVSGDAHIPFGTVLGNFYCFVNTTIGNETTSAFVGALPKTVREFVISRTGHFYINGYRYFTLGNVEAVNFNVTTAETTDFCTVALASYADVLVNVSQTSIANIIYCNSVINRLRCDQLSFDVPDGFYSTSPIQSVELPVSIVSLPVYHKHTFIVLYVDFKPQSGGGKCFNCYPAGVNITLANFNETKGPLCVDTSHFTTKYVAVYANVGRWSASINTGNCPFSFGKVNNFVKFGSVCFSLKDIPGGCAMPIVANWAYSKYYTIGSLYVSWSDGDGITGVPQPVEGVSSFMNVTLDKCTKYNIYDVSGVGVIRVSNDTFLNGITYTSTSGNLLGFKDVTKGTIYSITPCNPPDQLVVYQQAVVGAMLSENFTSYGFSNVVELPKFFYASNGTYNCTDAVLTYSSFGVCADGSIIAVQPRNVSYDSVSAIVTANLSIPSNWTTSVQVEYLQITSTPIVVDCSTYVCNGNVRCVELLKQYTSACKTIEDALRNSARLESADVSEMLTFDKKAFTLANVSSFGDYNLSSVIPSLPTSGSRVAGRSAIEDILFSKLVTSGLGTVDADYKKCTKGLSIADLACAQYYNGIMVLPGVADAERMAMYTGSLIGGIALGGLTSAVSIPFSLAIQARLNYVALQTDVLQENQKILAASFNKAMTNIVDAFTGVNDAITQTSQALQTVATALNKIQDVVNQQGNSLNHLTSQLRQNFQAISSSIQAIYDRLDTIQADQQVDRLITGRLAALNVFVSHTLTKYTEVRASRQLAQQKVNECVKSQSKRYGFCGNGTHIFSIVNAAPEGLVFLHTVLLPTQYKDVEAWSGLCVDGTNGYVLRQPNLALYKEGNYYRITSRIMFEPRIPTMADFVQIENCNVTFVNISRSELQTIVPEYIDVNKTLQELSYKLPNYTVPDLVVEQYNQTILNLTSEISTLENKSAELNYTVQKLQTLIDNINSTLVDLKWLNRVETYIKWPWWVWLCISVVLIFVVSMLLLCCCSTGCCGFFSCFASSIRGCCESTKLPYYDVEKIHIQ
Experiment: ELISA
MEASURED_PARAMETER: binding result

C13C9 mAb (antibody, V domains shown) VH: EVQLVQSGPEVKKPGTSARVSCKASGFTSKNTALQWVRQARGQPLEWMGWIDISNYITNYAQKFRGRLTITWDLSASMAYMELSSLRSEDTAVYYCAAVGKDDDVLTGGNKYFDHWGQGTLVTVSS VL: SYELTQPPSVSVSPGQTARITCSGDALPKKYAYWYQQKSGQAPVLVIHEDDKRPSGIPGRFSASSSGTTATLTISGAQVEDEADYYCYSTDTNDNHAFGSGTKLTVL ... binds
